Hello, the source for this data is ChEMBL document CHEMBL1201862, in case you need it.

system: PC-3; assay: NCI tumour cell line growth inhibition, 48 h
Calls of active or inactive are those of the source. Cut-off read from the data, not from the text of the source: active = GI50 up to about 1.1 µM and inactive = higher.
// one of class 1 (active), class 0 (inactive), no free text

The following compounds have reported results that may help.
| Compound | Measurement Target | Label Class |
| --- | --- | --- |
| COc1ccc2oc(=N)c(C(=O)Nc3ccccn3)cc2c1 | PC-3 | class 0 |
| O=C(CCN1CCN2c3ccccc3CCC2C1)c1ccc(F)cc1 (stereo unspecified) | PC-3 | class 0 |
| COC(=O)NNc1c([N+](=O)[O-])cnn(-c2ccccc2)c1=O | PC-3 | class 0 |
| Nc1ccc(C2NC(=O)Cc3c2ccc2ccccc32)cc1 (stereo unspecified) | PC-3 | class 0 |
| CCOP(=O)(OCC)C(Cc1cn(S(=O)(=O)c2ccc(C)cc2)cn1)C(=O)O (stereo unspecified) | PC-3 | class 0 |

Problem: Which outcome was assigned to CC(C)c1cc(C(C)C)c(B(c2ccccc2)c2ccccc2)c(C(C)C)c1B(c1ccccc1)c1ccccc1 in this test?
Solution: class 0

Problem: Which outcome was assigned to O=C(NN=C1NCCCCN1)Nc1ccc(Cl)cc1 in this test?
Solution: class 0

Problem: Which outcome was assigned to Cc1cc2c(cc1C)C(=O)C1(C2)Cc2c(C)ccc(C)c2C1=O (stereo unspecified) in this test?
Solution: class 0

Problem: Which outcome was assigned to CCC[C@H](O)[C@@H](CNc1cc(NC(C)=O)nc(NC(C)=O)n1)N(Cc1ccccc1)Cc1ccccc1 in this test?
Solution: class 0

Problem: Which outcome was assigned to C[C@]12C[C@@H](c3ccccc3)Nc3ccccc3N1C(c1ccccc1)=NO2 in this test?
Solution: class 0

Problem: Which outcome was assigned to Nc1ccn(C2CC(O)C(COP(=O)(S)OC3CC(n4ccc(N)nc4=O)OC3CO)O2)c(=O)n1 (stereo unspecified) in this test?
Solution: class 0

Problem: Which outcome was assigned to CCCCCCOc1ccc(C(=O)N(C)O)cc1 in this test?
Solution: class 0

Problem: Which outcome was assigned to CC1=NN(c2nc(N)nc(/C(C#N)=C\C3COc4ccccc4C3=O)n2)C(C)(C)C1 (stereo unspecified) in this test?
Solution: class 0

Problem: Which outcome was assigned to O=c1cc(-c2ccccc2)nc2[nH]ccn12 in this test?
Solution: class 0

Problem: Which outcome was assigned to Cc1cc(S(=O)(=O)Nc2nc3cccnc3[nH]2)c(S)cc1Cl in this test?
Solution: class 0

Problem: Which outcome was assigned to O=C(O/C=C\OC1CCCC1(c1ccccc1)c1ccccc1)c1ccccc1 (stereo unspecified) in this test?
Solution: class 0

Problem: Which outcome was assigned to COc1ccc(N2C(=O)C3c4[nH]c5c(C)cccc5c4C4CCC(C(C)C)CC4C3C2=O)cc1 (stereo unspecified) in this test?
Solution: class 0

Problem: Which outcome was assigned to CC(=O)NC1=C(C)C(=O)c2c(nc3n2CC[C@H]3OC(C)=O)C1=O in this test?
Solution: class 1

Problem: Which outcome was assigned to Cc1c(F)c(N)c2c(=O)cc(-c3ccc(NC(=O)[C@@H](N)CCCCN)c(F)c3)oc2c1F in this test?
Solution: class 0

Problem: Which outcome was assigned to CCc1[nH]c(=O)c2oc3cc4ccccc4cc3c2c1C(=O)O in this test?
Solution: class 0

Problem: Which outcome was assigned to O=C1c2ccccc2C(=O)c2c1c1cc(O)ccc1n2Cc1ccc(Cl)cc1Cl in this test?
Solution: class 0
